Numbers sourced from ChEMBL document CHEMBL1201862.

system: OVCAR-3; test: NCI tumour cell line growth inhibition, 48 h
Active and inactive are the calls of the source. Rule as the data show it: active = GI50 up to about 1.1 µM and inactive = higher.
Classes used: True (active), False (inactive)

[
  {
    "COMPOUND": "Cc1c(/C=N/NC(=S)Nc2ccccc2Cl)c(=O)n(-c2ccccc2)n1C",
    "CLASSIFICATION": "False"
  },
  {
    "COMPOUND": "C=C(C)C1CC/C(C)=C/CC[C@]2(C)O[C@H]2CC/C(COC(C)=O)=C\\[C@@H]1O (stereo partly specified)",
    "CLASSIFICATION": "False"
  },
  {
    "COMPOUND": "COC(=O)C(C)Sc1nc2cc(Cl)ccc2s1 (stereo unspecified)",
    "CLASSIFICATION": "False"
  },
  {
    "COMPOUND": "Cc1ccccc1N1C(=O)/C(=C/c2ccc(N(CCC#N)CCC#N)cc2)N=C1c1cc([N+](=O)[O-])ccc1Cl",
    "CLASSIFICATION": "False"
  },
  {
    "COMPOUND": "CN(C)c1ccc(/C=C/c2ccnc3ccccc23)cc1",
    "CLASSIFICATION": "False"
  },
  {
    "COMPOUND": "CC(=O)O[C@H]1C(=O)[C@@]2(C)[C@H]([C@H](OC(=O)C3CCCCC3)[C@]3(O)C[C@H](OC(=O)[C@H](O)[C@@H](NC(=O)OC(C)(C)C)c4ccccc4)C(C)=C1C3(C)C)[C@]1(OC(C)=O)CO[C@@H]1C[C@@H]2O",
    "CLASSIFICATION": "True"
  },
  {
    "COMPOUND": "Cc1ccc(C(=O)c2nnc(C(=O)c3ccc(C)cc3)nn2)cc1",
    "CLASSIFICATION": "False"
  },
  {
    "COMPOUND": "CC1=C(C)C(=O)O[C@@H]([C@](C)(O)[C@]2(O)CC[C@@]3(O)[C@@H]4C[C@H](O)[C@]5(O)[C@@H](O)C=CC(=O)[C@]5(C)[C@H]4CC[C@]23C)C1",
    "CLASSIFICATION": "False"
  },
  {
    "COMPOUND": "CN(Cc1cnc2c(n1)C(N)=NN(N)N2)c1ccc(C(=O)NC(CCP(=O)(O)O)C(=O)O)cc1 (stereo unspecified)",
    "CLASSIFICATION": "False"
  },
  {
    "COMPOUND": "Cc1cc(C)cc(Nc2nnc3n2S(=O)(=O)c2cc(C#N)c(Cl)cc2S3)c1",
    "CLASSIFICATION": "False"
  },
  {
    "COMPOUND": "O=CNc1cccc2c3c([nH]c12)CCCCCC3",
    "CLASSIFICATION": "False"
  },
  {
    "COMPOUND": "Cc1cn2cc(-c3cccs3)nc2s1",
    "CLASSIFICATION": "False"
  },
  {
    "COMPOUND": "O=C(O)c1ccc(/N=N/c2cc(S(=O)(=O)O)c3cccnc3c2O)cc1",
    "CLASSIFICATION": "False"
  },
  {
    "COMPOUND": "COc1ccc(NC(=O)/C(Cc2cc(=O)oc3cc(O)ccc23)=N\\NC(C)(C)C)c(OC)c1",
    "CLASSIFICATION": "False"
  },
  {
    "COMPOUND": "CC1CC[C@@]2(OC1)OC1CC3C4CCC5C[C@@H](OC6OC(CO)C(OC7OC(CO)C(O)C(OC8OC(CO)C(O)C(OC9OC(CO)C(O)C(O)C9O)C8O)C7OC7OC(CO)C(O)C(O)C7O)C(O)C6O)[C@H](O)C[C@]5(C)C4CC[C@]3(C)C1[C@@H]2C (stereo partly specified)",
    "CLASSIFICATION": "False"
  },
  {
    "COMPOUND": "S=C1NN=C2C(=C3CCCC4C5CCCCC5N2C34)N1 (stereo unspecified)",
    "CLASSIFICATION": "False"
  }
]

* * *

# Lookup of reported GI50 keyed by entry
system: MOLT-4; assay: NCI tumour cell line growth inhibition, 48 h
Calls of active or inactive are those of the source. Cut-off read from the data, not from the text of the source: active = GI50 up to about 1.1 µM and inactive = higher.
ENDPOINT LABEL: GI50

[
  {
    "MOLECULE": "CCN(CC)CCCC(C)NC(=O)c1ccc2c(c1)C(=O)c1ccccc1C2=O (stereo not given)",
    "TESTED ON": "MOLT-4",
    "MEASURED RESULT": "16.6 µM (inactive)"
  },
  {
    "MOLECULE": "CCN(C(=O)N[C@H](C(=O)N[C@@H](CSC)C(=O)N[C@@H](C)C(=O)OC)C(C)C)c1ccccc1",
    "TESTED ON": "MOLT-4",
    "MEASURED RESULT": "8.3 µM (inactive)"
  },
  {
    "MOLECULE": "Cc1nc(C)c(N2CCN(C(=O)O)CC2)c(O)n1",
    "TESTED ON": "MOLT-4",
    "MEASURED RESULT": "> 100 µM (inactive)"
  },
  {
    "MOLECULE": "COc1cc2c(cc1C)NC(=O)/C2=C\\c1cccnc1",
    "TESTED ON": "MOLT-4",
    "MEASURED RESULT": "7.98 µM (inactive)"
  },
  {
    "MOLECULE": "COc1cc(/C=N/N=C(\\N)NO)c([N+](=O)[O-])cc1OC",
    "TESTED ON": "MOLT-4",
    "MEASURED RESULT": "27.1 µM (inactive)"
  }
]

* * *

system: SK-OV-3; assay: NCI tumour cell line growth inhibition, 48 h
Calls of active or inactive are those of the source. Rule as the data show it: active = GI50 up to about 1.1 µM and inactive = higher.
# Lookup of reported GI50 keyed by entry

[
  {
    "COMPOUND": "O=C(N[C@H](CO)[C@H](O)c1ccc([N+](=O)[O-])cc1)C(Cl)Cl",
    "GI50": "> 100 µM (inactive)"
  },
  {
    "COMPOUND": "c1ccc(C2OCCO2)c(OCCOc2cc(OCCOc3ccccc3C3OCCO3)c(OCCOc3ccccc3C3OCCO3)cc2OCCOc2ccccc2C2OCCO2)c1",
    "GI50": "2.76 µM (inactive)"
  },
  {
    "COMPOUND": "COC(=O)n1c(=O)nc2c3c(ncn21)Oc1c(c(-c2ccccc2)nn1-c1ccccc1)C3c1ccc(Cl)cc1 (configuration not stated)",
    "GI50": "3.29 µM (inactive)"
  },
  {
    "COMPOUND": "CC1(C)COC(c2ccccc2-c2ccccc2)=N1",
    "GI50": "> 100 µM (inactive)"
  },
  {
    "COMPOUND": "Cc1ccc2[nH]c(=O)c(C(C#N)c3ccccc3)nc2c1 (configuration not stated)",
    "GI50": "50.7 µM (inactive)"
  },
  {
    "COMPOUND": "CC(C)(C)c1cc(-c2cc(C(C)(C)C)[nH]n2)[nH]n1",
    "GI50": "> 100 µM (inactive)"
  },
  {
    "COMPOUND": "COc1cc2c3c(c1OC)C1(C=CC(=O)C=C1)CC3NCC2 (configuration not stated)",
    "GI50": "> 100 µM (inactive)"
  }
]

* * *

test system: MDA-MB-231; test: NCI tumour cell line growth inhibition, 48 h
The source made the active and inactive calls. Cut-off read from the data, not from the text of the source: active = GI50 up to about 1.1 µM and inactive = higher.

[
  {
    "COMPOUND": "CCCOc1ccc(-c2nc(-c3ccc(/N=C/c4ccc(N(CCOS(C)(=O)=O)CCOS(C)(=O)=O)cc4C)cc3)cs2)cc1",
    "TESTED ON": "MDA-MB-231",
    "GI50": "34 µM (inactive)"
  },
  {
    "COMPOUND": "COc1cc(C)c(C2NC(=O)c3ccccc3N2)cc1C (centres undefined)",
    "TESTED ON": "MDA-MB-231",
    "GI50": "0.968 µM (active)"
  },
  {
    "COMPOUND": "CCOP(=O)(OCC)/C(C#N)=C/c1cnc(-c2ccccc2)[nH]1",
    "TESTED ON": "MDA-MB-231",
    "GI50": "> 100 µM (inactive)"
  },
  {
    "COMPOUND": "CC1CC[C@@]2(OC1)OC1CC3C4CCC5C[C@@H](OC6OC(CO)C(OC7OC(CO)C(O)C(OC8OC(CO)C(O)C(OC9OC(CO)C(O)C(O)C9O)C8O)C7OC7OC(CO)C(O)C(O)C7O)C(O)C6O)[C@H](O)C[C@]5(C)C4CC[C@]3(C)C1[C@@H]2C (some centres undefined)",
    "TESTED ON": "MDA-MB-231",
    "GI50": "> 80.5 µM (inactive)"
  }
]
